target desc: Human recombinant full length HDAC1 (Homo sapiens (Human))
Sequence (Q13547 whole entry): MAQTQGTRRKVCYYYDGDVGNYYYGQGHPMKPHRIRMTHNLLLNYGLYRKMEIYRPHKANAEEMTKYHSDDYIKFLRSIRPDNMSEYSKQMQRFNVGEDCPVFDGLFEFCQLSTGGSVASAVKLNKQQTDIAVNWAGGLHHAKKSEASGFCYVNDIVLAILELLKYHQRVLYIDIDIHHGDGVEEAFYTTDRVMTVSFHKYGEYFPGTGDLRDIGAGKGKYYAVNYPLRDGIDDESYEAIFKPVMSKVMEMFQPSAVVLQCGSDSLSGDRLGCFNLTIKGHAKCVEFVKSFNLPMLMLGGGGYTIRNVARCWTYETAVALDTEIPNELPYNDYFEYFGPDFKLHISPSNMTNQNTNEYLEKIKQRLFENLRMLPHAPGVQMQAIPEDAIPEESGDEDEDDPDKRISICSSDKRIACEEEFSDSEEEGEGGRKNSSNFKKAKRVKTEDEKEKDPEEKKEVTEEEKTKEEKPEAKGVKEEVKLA
method summary: HDAC1 assay (Test 2), acetyl-Gly-Ala-Lys(acetyl)-AMC substrate
Assay type: biochemical
measurement setup: 5 μM substrate, 2 hours at room temperature
Please go through the items and note down their IC50.
Reply with just the number (in µM).

Ask: Value lookup for IC50; key = FC(F)(F)c1nc(-c2ncc(NCc3ccncc3)cn2)no1
Reply: 4.7

Ask: Value lookup for IC50; key = CC(Nc1ncc(-c2noc(C(F)(F)F)n2)cn1)c1ccncc1 (centres unmarked)
Reply: 4.1

Ask: Value lookup for IC50; key = Cc1cc(C(C)Nc2ncc(-c3noc(C(F)(F)F)n3)cn2)ccn1 (centres unmarked)
Reply: 1.6

###

target desc: Human recombinant HDAC4 (Homo sapiens (Human), UniProt P56524)
Sequence (P56524 2-1084): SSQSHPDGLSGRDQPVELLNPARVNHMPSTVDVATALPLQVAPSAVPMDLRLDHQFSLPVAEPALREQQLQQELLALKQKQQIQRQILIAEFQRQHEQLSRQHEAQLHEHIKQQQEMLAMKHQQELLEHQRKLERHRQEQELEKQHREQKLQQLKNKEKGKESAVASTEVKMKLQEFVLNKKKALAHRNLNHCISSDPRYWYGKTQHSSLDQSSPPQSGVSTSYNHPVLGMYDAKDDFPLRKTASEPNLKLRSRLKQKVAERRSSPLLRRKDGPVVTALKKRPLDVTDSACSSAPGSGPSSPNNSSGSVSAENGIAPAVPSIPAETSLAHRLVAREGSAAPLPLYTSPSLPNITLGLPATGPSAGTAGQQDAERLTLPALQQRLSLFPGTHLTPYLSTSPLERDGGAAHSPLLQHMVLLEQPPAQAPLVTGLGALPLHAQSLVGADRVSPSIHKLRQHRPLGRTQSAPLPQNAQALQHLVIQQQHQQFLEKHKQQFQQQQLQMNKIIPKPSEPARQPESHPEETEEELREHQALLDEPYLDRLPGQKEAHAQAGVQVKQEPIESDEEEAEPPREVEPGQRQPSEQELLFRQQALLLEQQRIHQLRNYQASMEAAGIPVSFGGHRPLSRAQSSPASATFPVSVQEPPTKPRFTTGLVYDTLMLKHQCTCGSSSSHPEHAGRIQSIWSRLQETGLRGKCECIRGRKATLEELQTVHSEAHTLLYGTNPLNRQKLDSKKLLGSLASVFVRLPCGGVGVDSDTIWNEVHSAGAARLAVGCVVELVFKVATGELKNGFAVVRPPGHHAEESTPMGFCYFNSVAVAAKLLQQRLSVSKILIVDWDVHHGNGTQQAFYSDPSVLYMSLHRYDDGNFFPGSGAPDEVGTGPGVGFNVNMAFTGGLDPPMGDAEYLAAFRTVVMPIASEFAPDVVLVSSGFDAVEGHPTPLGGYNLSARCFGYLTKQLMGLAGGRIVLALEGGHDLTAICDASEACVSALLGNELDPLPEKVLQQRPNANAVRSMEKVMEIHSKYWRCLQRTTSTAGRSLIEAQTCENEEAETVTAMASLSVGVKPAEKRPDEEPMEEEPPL
method summary: HDAC4 assay (Test 1), fluorescence, acetyl-Gly-Ala-Lys(ε-trifluoroacetyl)-AMC substrate
Assay type: biochemical
measurement setup: 5 μM substrate, 2 hours at room temperature
pIC50: −log10 of the molar value.
Threshold rule: pIC50 greater than or equal to 7 is Y; below that, N.

Ask: Dear colleague, could you confirm whether CN(Cc1ccnc(Cl)c1)c1ncc(-c2noc(C(F)(F)F)n2)cn1 has pIC50 at or above 7?
Reply: Y

Ask: Dear colleague, could you confirm whether FC(F)(F)c1nc(-c2cnc(NCc3ccncc3)nc2)no1 has pIC50 at or above 7?
Reply: Y

Ask: Dear colleague, could you confirm whether C[C@H](CN(C)C)NC(=O)c1ccc(-c2noc(C(F)(F)F)n2)cn1 has pIC50 at or above 7?
Reply: N

Ask: Dear colleague, could you confirm whether FC(F)(F)c1nc(-c2cnc(NCc3ccncc3)c(Cl)c2)no1 has pIC50 at or above 7?
Reply: Y

Ask: Dear colleague, could you confirm whether CC(Nc1ncc(-c2noc(C(F)(F)F)n2)cn1)c1ccncc1 (stereo not drawn) has pIC50 at or above 7?
Reply: Y

Ask: Dear colleague, could you confirm whether CCC(Nc1ncc(-c2noc(C(F)(F)F)n2)cn1)c1ccncc1 (stereo not drawn) has pIC50 at or above 7?
Reply: Y

Ask: Dear colleague, could you confirm whether C[C@H](Nc1cnc(-c2noc(C(F)(F)F)n2)nc1)c1ccccc1 has pIC50 at or above 7?
Reply: N

Ask: Dear colleague, could you confirm whether C[C@H](CN(C)C)NC(=O)c1ncc(-c2noc(C(F)(F)F)n2)cc1Cl has pIC50 at or above 7?
Reply: N

Ask: Dear colleague, could you confirm whether FC(F)(F)c1nc(-c2ncc(NCc3ccncc3)cn2)no1 has pIC50 at or above 7?
Reply: N

Ask: Dear colleague, could you confirm whether CC(Nc1ncc(-c2noc(C(F)(F)F)n2)cc1Cl)c1ccncc1 (stereo not drawn) has pIC50 at or above 7?
Reply: Y

Ask: Dear colleague, could you confirm whether FC(F)(F)c1nc(-c2ccc(NCc3ccccc3)cn2)no1 has pIC50 at or above 7?
Reply: N

Ask: Dear colleague, could you confirm whether C[C@H](CN(C)Cc1ccccc1)NC(=O)c1ccc(-c2noc(C(F)(F)F)n2)nc1 has pIC50 at or above 7?
Reply: Y

Ask: Dear colleague, could you confirm whether Cc1cc(C(C)Nc2ncc(-c3noc(C(F)(F)F)n3)cn2)ccn1 (stereo not drawn) has pIC50 at or above 7?
Reply: Y

Ask: Dear colleague, could you confirm whether C[C@@H](Nc1ncc(-c2noc(C(F)(F)F)n2)cc1Cl)c1ccccc1 has pIC50 at or above 7?
Reply: Y

Ask: Dear colleague, could you confirm whether C[C@@H](Nc1cnc(-c2noc(C(F)(F)F)n2)nc1)c1ccccc1 has pIC50 at or above 7?
Reply: Y

Ask: Dear colleague, could you confirm whether Cc1ccc(CNc2ncc(-c3noc(C(F)(F)F)n3)cc2Cl)cn1 has pIC50 at or above 7?
Reply: Y

Ask: Dear colleague, could you confirm whether FC(F)(F)c1nc(-c2cnc(NCc3ccccc3)nc2)no1 has pIC50 at or above 7?
Reply: Y

Ask: Dear colleague, could you confirm whether FC(F)(F)c1nc(-c2ccc(NCc3ccccc3)nn2)no1 has pIC50 at or above 7?
Reply: N

Ask: Dear colleague, could you confirm whether FC(F)(F)c1nc(-c2cnc(NCc3ccccn3)c(Cl)c2)no1 has pIC50 at or above 7?
Reply: Y

Ask: Dear colleague, could you confirm whether Cc1cc(CN(C)c2ncc(-c3noc(C(F)(F)F)n3)cn2)ccn1 has pIC50 at or above 7?
Reply: Y

Ask: Dear colleague, could you confirm whether C[C@@H](Nc1ccc(-c2noc(C(F)(F)F)n2)cn1)c1ccncc1 has pIC50 at or above 7?
Reply: Y

Data provenance: patent US9670193B2
